Source: patent US20230181756A1

Target: T1, human CCR7 (human, UniProt P32248 25-378)
T1 sequence: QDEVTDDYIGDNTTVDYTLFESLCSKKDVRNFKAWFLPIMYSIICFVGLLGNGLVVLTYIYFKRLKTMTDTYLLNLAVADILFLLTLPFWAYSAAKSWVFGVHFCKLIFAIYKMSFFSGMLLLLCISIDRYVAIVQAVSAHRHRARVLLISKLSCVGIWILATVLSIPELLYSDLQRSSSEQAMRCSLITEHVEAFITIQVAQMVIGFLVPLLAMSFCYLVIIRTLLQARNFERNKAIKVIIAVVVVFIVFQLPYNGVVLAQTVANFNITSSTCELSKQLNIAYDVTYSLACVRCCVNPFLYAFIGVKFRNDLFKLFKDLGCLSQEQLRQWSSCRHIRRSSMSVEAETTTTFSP
Assay: cell-based or functional assay
observation-type: ADCC activity; IC50 (nM); reporter assay, JVM2 targets and Jurkat-V158 effectors
Give your result as the value with the unit written after it.

## Input Look up ADCC activity; IC50 (nM); reporter assay, JVM2 targets and Jurkat-V158 effectors for this binder: 121G12 non-humanized CysMab (antibody, human IgG1, kappa, V domains shown, Chimeric: murine variable regions on human IgG1 kappa with CysMab cysteines (E152C, S375C) and wild type Fc; also called Parental 121G12 hIgG1 CysMab; Non-humanized CysMab antibody 121G12) VH: EVQLVESGGGLVKPGGSLKLSCAASGFTFSTYAMSWVRQTPEKRLEWVATISDGGSYSYYPDNVKGRFTISRDNAKNNLYLQMSHLKSEDTAMYYCARRGSRYEEYYVMDYWGQGTSVTVSS VL: DIVLTQSPATLSVTPGDSVSLSCRASQSISNNLHWYQQKSHESPKLLIKYASQSISGIPSRFSGSGSGTDFTLSINSVETEDFGMYFCQQSNSWLTFGAGTKLGLKR
## Output 0.077 nM
